Sourced from paper PMC4336329

- experimental-target: human ether-à-go-go-related gene (hERG) potassium channel (human, UniProt Q12809);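 further: peak tail current of the secondary pulse compared with the same well before compound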
- Sequence (Q12809 whole entry, looked up): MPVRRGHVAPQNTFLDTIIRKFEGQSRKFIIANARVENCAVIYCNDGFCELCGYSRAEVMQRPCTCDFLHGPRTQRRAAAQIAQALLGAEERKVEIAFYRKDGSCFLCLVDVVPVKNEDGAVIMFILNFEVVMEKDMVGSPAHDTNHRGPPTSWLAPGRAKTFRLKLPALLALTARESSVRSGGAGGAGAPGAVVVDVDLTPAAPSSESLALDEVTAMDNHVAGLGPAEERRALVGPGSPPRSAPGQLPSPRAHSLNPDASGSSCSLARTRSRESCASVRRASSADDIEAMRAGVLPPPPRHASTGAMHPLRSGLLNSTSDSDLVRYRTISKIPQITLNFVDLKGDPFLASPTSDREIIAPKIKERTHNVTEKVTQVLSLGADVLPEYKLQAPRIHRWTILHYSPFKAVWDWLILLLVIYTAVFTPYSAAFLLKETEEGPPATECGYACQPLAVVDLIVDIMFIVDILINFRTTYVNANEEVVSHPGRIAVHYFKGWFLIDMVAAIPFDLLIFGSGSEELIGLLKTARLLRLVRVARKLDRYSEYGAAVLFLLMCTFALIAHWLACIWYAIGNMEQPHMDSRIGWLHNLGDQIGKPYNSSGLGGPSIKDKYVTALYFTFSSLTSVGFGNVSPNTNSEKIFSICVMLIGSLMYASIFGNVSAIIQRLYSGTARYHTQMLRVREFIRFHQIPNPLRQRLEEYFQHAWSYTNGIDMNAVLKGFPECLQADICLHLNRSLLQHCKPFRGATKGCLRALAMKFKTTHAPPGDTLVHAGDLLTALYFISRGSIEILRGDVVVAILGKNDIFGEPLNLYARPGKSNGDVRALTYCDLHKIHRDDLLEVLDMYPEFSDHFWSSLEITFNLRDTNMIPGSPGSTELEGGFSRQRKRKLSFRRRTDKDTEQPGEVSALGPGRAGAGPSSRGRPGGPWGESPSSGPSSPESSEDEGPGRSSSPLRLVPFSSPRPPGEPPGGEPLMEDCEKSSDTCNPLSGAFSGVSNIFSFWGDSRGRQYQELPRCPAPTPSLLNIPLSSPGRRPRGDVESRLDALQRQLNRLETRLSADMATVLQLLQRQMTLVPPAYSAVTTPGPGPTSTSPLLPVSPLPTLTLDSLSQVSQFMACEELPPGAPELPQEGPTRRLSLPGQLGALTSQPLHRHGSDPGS
- test-name: primary screen, population patch clamp on CHO cells stably expressing hERG; higher = less effect of the substance
Among all 310,000 compounds or so, about 14,000 (4.5%) showed an effect of 50% or more. The effect is printed as a negative number. For the sample, strong results were picked, then their nearest neighbours and some compounds at random.
Decide using hERG current change (%, negative = inhibition) at 10uM: a value greater than or equal to -20% is 1.0, a smaller one is 0.0.

{"columns": ["molecule", "class-label"],
 "data": [
  ["COc1ccc(NC(=O)c2oc3ccccc3c2NC(=O)C(C)(C)C)cc1", 1.0],
  ["CC1CC(C)CN(C(=O)C2CCCN(c3ncnc4c3nc3n4CCCCC3)C2)C1 (stereo not drawn)", 0.0],
  ["O=C(C1CCCN(c2ncnc3c2nc2n3CCCCC2)C1)N1CCCCC1 (stereo not drawn)", 1.0],
  ["Cc1cc(C)c2nc(-c3ccccn3)cc(C(=O)n3cccn3)c2c1", 1.0],
  ["Cc1ccc(-c2c(C#N)c(N)nc3c2CCCCC3)o1", 1.0],
  ["c1ccc(-c2ncc(CN3CCN(c4ccccn4)CC3)[nH]2)cc1", 1.0]
]}

-- ask Given the entry CNS(=O)(=O)c1cc(OC)ccc1OC , answer whether its hERG current change (%, negative = inhibition) at 10uM meets or surpasses -20%.
-- reply 1.0

-- ask Another: Nc1nonc1C(=O)OCC(=O)c1ccc(Cl)cc1
-- reply 1.0

-- ask Another: O=C1/C(=C\c2ccc(Br)o2)SC(=Nc2ccccc2)N1c1ccccc1
-- reply 1.0

-- ask Another: O=C1c2ccccc2N2C(=O)c3ccccc3C2N1Cc1ccccc1 (stereo not drawn)
-- reply 0.0

-- ask Another: CCCCN(CC)CCCNC(=O)c1cc2c(=O)[nH]c3ccccc3c2s1
-- reply 1.0

-- ask Another: Cc1ccc(CNC(=O)CCCNS(=O)(=O)c2cccc3nonc23)cc1
-- reply 1.0

-- ask Another: O=C(C1CCCN(c2ncnc3c2nc2n3CCCCC2)C1)N1CCN(c2cccc(Cl)c2)CC1 (stereo not drawn)
-- reply 0.0

-- ask Another: CCN(CC)CCCNC(=O)c1[nH]c2ccccc2c1Sc1ccc(Cl)cc1
-- reply 0.0

-- ask Another: O=C(COc1ccc(Cl)cc1)NCCNC(=O)c1cnccn1
-- reply 1.0

-- ask Another: O=C1c2ccccc2N2C(=O)c3ccccc3[C@H]2N1c1ccccc1
-- reply 0.0

-- ask Another: CS(=O)(=O)N1CCCC(C(=O)NCc2ccc(F)cc2Cl)C1 (stereo not drawn)
-- reply 1.0

-- ask Another: COc1cccc(Nc2nc(-c3sc(N)nc3C)cs2)c1
-- reply 1.0

-- ask Another: O=C1c2ccccc2N2C(=O)c3ccccc3C2N1Cc1ccco1 (stereo not drawn)
-- reply 0.0

-- ask Another: Cc1nn(Cc2c(F)c(F)c(F)c(F)c2F)c(C)c1NC(=O)c1cccc(COc2ccc(Cl)cc2)c1
-- reply 1.0

-- ask Another: CCOC(=O)c1ccccc1NC(=S)N1CC(C)CC(C)C1 (stereo not drawn)
-- reply 1.0

====

- experimental-target: human ether-à-go-go-related gene (hERG) potassium channel (human, UniProt Q12809);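 further: peak tail current of the secondary pulse compared with the same well before compound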
- test-name: primary screen, population patch clamp on CHO cells stably expressing hERG; higher = less effect of the substance
Hit rate of the full screen: of about 310,000 compounds, about 14,000 (4.5%) showed an effect of 50% or more. Effects have a minus sign here. Only a selection was taken, and strong results are over-represented in it overall.
Below, each of the molecules is paired with its reported hERG current change (%, negative = inhibition) at 10uM value.

Known results for molecules:
{"columns": ["molecule", "result"],
 "data": [
  ["C/C(=N\\NC(=O)Cn1nc(C)c([N+](=O)[O-])c1C)c1ccco1", "26%"],
  ["CCC(CC)c1nn2c(N)c(/C=C3\\C=Nc4ccccc43)c(=O)nc2s1", "0.567%"],
  ["O=C(NC1CC2CCCC(C1)N2S(=O)(=O)c1ccccc1)c1ccccc1 (centres unmarked)", "-44%"],
  ["CCc1nc(SCC(=O)NCc2ccco2)c2c(=O)n(C)c(=O)n(C)c2n1", "-0.832%"]
]}

-- ask Reported hERG current change (%, negative = inhibition) at 10uM for human ether-à-go-go-related gene (hERG) potassium channel (human, UniProt Q12809), given Clc1ccc(-c2nc(Cc3ccccc3)no2)cc1 ?
-- reply 11.9%
